Experiment Summary: Clearance in Sprague-Dawley rat at 2 mg/kg, iv
Type: ADME, organism-based
Parameters: dose 2 mg/kg, route intravenous
Measurement Context: in vivo
Measured Parameter: clearance (mL/min/kg)
Your answer is read as mL/min/kg, so omit the unit and give the number.

Record summary for `C[C@@H]1CC[C@@H](Oc2ccnc3c(F)cccc23)CN1C(=O)c1ccccc1-n1nccn1` : reported clearance = 22.5

* * *

Subject Of Test: Orexin/Hypocretin receptor type 1 (Homo sapiens, UniProt O43613)
Sequence (O43613 whole entry): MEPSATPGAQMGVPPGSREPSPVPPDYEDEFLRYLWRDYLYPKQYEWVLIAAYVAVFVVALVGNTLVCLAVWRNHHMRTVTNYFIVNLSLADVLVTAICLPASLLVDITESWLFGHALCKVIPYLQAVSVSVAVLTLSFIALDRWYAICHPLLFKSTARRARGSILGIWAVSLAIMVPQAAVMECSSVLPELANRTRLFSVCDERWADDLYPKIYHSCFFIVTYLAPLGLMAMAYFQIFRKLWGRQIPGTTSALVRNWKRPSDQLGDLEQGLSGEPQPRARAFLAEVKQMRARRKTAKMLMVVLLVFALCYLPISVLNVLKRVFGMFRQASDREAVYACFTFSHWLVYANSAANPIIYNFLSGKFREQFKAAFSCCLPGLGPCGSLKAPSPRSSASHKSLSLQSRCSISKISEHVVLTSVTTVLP
Measured Parameter: log10(Ki) (log10 of the value in nM)
A value of 2 here means Ki of 100 in nM, since values are log10.

Worked examples, 2 compounds total:
Compound: C[C@@H]1CC[C@@H](Oc2ccnc3c(F)cccc23)CN1C(=O)c1ccccc1-c1ncccn1
log10(Ki): 3.08

Compound: CC1CCC(Oc2cccc3ccncc23)CN1C(=O)c1ccccc1-n1nccn1 (racemic)
log10(Ki): 2.95

Measured log10(Ki) of CC1CCC(Oc2ccnc3ccccc23)CN1C(=O)c1ccccc1-n1nccn1 (racemic) : 3.43

// field: log10(Ki); key: Cc1ccc(-n2nccn2)c(C(=O)N2C[C@H](Oc3cccc4ccccc34)CC[C@H]2C)c1 (relative stereo) ; value = 1.11

The compound CC1CCC(Oc2cccc3cnccc23)CN1C(=O)c1ccccc1-n1nccn1 (racemic) showed log10(Ki) equal to 2.62

CC1CCC(Oc2ccnc3c(F)cccc23)CN1C(=O)c1ccccc1-n1nccn1 (racemic) has a reported log10(Ki) of 2.96

Input `COc1cnc(O[C@@H]2CC[C@@H](C)N(C(=O)c3ccccc3-n3nccn3)C2)c2ccccc12` . Output log10(Ki): -0.39

Form: compound = Cc1ccc(-n2nccn2)c(C(=O)N2CCCC(COc3ccc(F)c(C)c3)C2)c1 (stereo unspecified) ; log10(Ki) = 0.74

Memo: CC1CCC(Oc2ccnc3ccc(Br)cc23)CN1C(=O)c1ccccc1-n1nccn1 (racemic) , reported log10(Ki): 2.67

For CC1CCC(Oc2ccnc3c(Cl)cccc23)CN1C(=O)c1ccccc1-n1nccn1 (racemic) the compound record lists log10(Ki) as 2.71

* * *

Subject Of Test: Orexin/Hypocretin receptor type 1 (Homo sapiens, UniProt O43613)
Sequence (O43613 whole entry): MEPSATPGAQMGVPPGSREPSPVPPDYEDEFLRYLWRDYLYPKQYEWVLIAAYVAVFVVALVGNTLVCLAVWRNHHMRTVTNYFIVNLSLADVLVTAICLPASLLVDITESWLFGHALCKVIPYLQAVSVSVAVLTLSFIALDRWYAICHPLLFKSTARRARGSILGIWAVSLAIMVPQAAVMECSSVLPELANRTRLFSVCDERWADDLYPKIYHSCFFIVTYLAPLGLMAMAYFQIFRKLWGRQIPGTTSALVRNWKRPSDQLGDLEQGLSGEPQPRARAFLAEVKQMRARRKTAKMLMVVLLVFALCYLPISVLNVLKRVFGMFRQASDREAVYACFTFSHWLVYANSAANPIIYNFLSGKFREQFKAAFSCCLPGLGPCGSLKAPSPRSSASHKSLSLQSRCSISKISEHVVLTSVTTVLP
Measured Parameter: pKi
# pKi is unitless: minus log10 of the molar concentration; print number only

Here's what some known entries look like.
Compound: CC1CCC(Oc2cccc3cccnc23)CN1C(=O)c1ccccc1-n1nccn1 (racemic)
pKi: 6.12
//
Compound: Cc1ccc(-c2ncccn2)c(C(=O)N2C[C@H](COc3ccc(F)cn3)CC[C@H]2C)c1
pKi: 8.54

Summary: CC1CCC(Oc2ccnc3c(Br)cccc23)CN1C(=O)c1ccccc1-n1nccn1 (racemic) , Orexin/Hypocretin receptor type 1 (Homo sapiens, UniProt O43613), pKi = 5.96
